The values you see were collected from patent US12441768B2.

target_or_test_system: β-catenin (Homo sapiens, UniProt P35222)
Sequence (P35222 whole entry): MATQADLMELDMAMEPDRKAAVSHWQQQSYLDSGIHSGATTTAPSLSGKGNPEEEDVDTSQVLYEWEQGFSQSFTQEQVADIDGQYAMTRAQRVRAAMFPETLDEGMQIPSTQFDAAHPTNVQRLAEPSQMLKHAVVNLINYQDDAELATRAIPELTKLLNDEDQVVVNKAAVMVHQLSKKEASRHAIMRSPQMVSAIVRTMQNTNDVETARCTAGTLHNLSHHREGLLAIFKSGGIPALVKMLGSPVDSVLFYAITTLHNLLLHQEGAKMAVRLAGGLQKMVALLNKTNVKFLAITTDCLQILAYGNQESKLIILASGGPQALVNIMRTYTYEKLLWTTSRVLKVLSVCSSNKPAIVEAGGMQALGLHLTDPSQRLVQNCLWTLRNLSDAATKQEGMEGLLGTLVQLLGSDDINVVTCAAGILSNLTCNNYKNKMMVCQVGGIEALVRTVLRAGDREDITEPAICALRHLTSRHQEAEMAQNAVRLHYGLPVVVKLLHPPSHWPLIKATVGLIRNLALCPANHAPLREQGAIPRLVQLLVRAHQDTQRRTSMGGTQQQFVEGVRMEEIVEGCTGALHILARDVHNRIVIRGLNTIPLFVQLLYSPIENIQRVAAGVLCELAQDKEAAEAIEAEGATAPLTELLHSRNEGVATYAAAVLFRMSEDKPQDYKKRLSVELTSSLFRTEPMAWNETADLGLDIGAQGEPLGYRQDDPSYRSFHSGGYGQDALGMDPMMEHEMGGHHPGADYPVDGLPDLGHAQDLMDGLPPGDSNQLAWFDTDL
method_summary: KD50 measurement using competitive fluorescence polarization (FP) with labelled TCF4
Format: binding
test_parameters: fluorescence polarization, β-catenin; read-out: β-Cat FP KD
pKd: −log10 of the molar value. Where a SMILES comes first, the peptide text is derived from it.
measure: pKd

These solved cases illustrate the format of a correct answer.
- molecule: "CC[C@@H](C)[C@H]1NC(=O)[C@@H](CC(C)C)NC(=O)[C@@H](Cc2ccccc2)NC(=O)[C@H](Cc2c[nH]c3ccccc23)NC(=O)[C@@H](CCSC)NC(=O)CCCCCCCCCCCNC(=O)C[C@@H](C(=O)O)NC(=O)[C@H](Cc2c[nH]c3ccccc23)NC(=O)[C@@H](Cc2ccccc2)NC(=O)[C@H](CS)NC1=O [compound 190] (HELM PEPTIDE1{[O=C(CCCCCCCCCCCN[*:1])[*:2]].[dM].W.[dF].[dL].[dI].C.[dF].W.D}$PEPTIDE1,PEPTIDE1,1:R1-10:R3$$$V2.0)"
  pKd: "6.00 to 6.40"
- molecule: "CC[C@H](C)[C@H](NC(=O)[C@H](CC(C)C)NC(=O)[C@H](CC(C)C)NC(=O)[C@H](Cc1c[nH]c2ccccc12)NC(=O)[C@H](CCSC)NC(=O)[C@H](CCCNC(=N)N)NC(=O)[C@H](CO)NC(=O)[C@@H](N)CCSC)C(=O)N[C@@H](CO)C(=O)N[C@@H](Cc1ccccc1)C(=O)N[C@@H](Cc1c[nH]c2ccccc12)C(=O)NCC(=O)O [compound 60] (H-MSRMWLLISFWG-OH)"
  pKd: "< 4.52"

# evaluate next
Give pKd for CC[C@H](C)[C@H](NC(=O)[C@H](CC(C)C)NC(=O)[C@H](Cc1ccccc1)NC(=O)[C@H](Cc1c[nH]c2ccccc12)NC(=O)[C@@H](N)CCSC)C(=O)N[C@@H](CO)C(=O)N[C@@H](Cc1ccccc1)C(=O)N[C@@H](Cc1c[nH]c2ccccc12)C(=O)N[C@@H](C)C(=O)O [compound 162] (H-MWFLISFWA-OH) < 4.52
